Test: yeast display, Sf9 membrane polyspecificity reagent, FACS + sequencing; frameworks hold sequencing errors
ENDPOINT: polyreactivity (PSR sort gate)

| CONSTRUCT_SEQUENCE | ENDPOINT | OBSERVED_RESULT |
| --- | --- | --- |
| QVQLVESGGGLVQAGGSLRISCAASGRILYLNAMGWYRQAPGIEREFVAAISKSGGTTYYADSVKGRFTISRDKAKHTDYLQMNSLKPEDTAVFYCAVDIVRCGRDSWGQGTQVTVSS | polyreactivity (PSR sort gate) | low polyreactivity |
| QVQLVESGGGLVQAGGSLRLSCAASGITFEGYALGWYRQAPGKERELVAAIRSSGTSTYYADSVKGRFTISRDIAKNTVYLQMNSLKPEDTAVYYCNRARSSSRYDYWGQGTQVTVSS | polyreactivity (PSR sort gate) | low polyreactivity |
| QVQLVESGGGLDQAGGSLRLSCAASGNTFFWPNAMGWYRQAPGKERELFAGISYRGASTYYADSVKGRFTISRDNAKNTVYLQMNSLKPEDTAVYYCAADNTPRGRRQNRDMYYWGQGTQVTVSS | polyreactivity (PSR sort gate) | high polyreactivity |
| QVQLVESGGGLVQAGGSLRLSSAASGITFYFYVMGWYRQAPGKERELVADISTSDDSTYYADSVKGRFTISRDNAKNTVYLQMNSLKPEDTAVYYCATATRTYSAWYEYDYWGQGTQVTVSS | polyreactivity (PSR sort gate) | low polyreactivity |
| QVQLVESGGGLVQAGGSLRLSCAASGRTFLRYAMGWYRQAPGKERELVAAITYGGRTNYADSVKGRFTISRDNAKNTVYLQMNSLKPEDTAVYYCAADRTYYYGMRVDYWGQGTQVTVSS | polyreactivity (PSR sort gate) | high polyreactivity |

For each of the sequences below, state polyreactivity (PSR sort gate).
1. QVQLVESGGGLVQAGGSLRLSCAASGSTFYYYAMGWYRQAPGKERELVAAINSGGRTNYADSVKGRFTISRDNAKNTVYLQMNSLKPEDTAVYSCARDGYHRDYDYWGQGTQVTVSS
2. QVQLVESGGGLVQAGGSLRLSCAASGFTLAYYAMGWYRQAPGKERELVAAITADTGTTYYADSVKGRFTISRDNAKNTVYLQMNSLKPEDTAVYYCATRDVFYEDDYWGQGTQVTVSS

Result string:
1: low polyreactivity; 2: high polyreactivity

For each of the sequences below, state polyreactivity (PSR sort gate).
1. QVQLVESGGGLVQAGGSLRLSCAASGRIFDRNAMGWYRQAPGKERELVARIDPGDDTNYADSVKGRFTISRDNAKNTVYLQMNSLKAEDTAVYYCATDPDYVLYRTAYYEYDYWGQGTQVTVSS
2. QVQLVESGGGLVQAGGSLRLICAASGFNFVTNAMGWYRQAPGKERELVAAISRRGGSTYYADSVKGRFTISRDIAKNTVYLQMNSLKPEDTAVLYCAAVTLSAESGYYWGHGTQVTVSS
3. QVQLVESGGGLVQAGGSLRLSCAASGSIFGYYAMGWYRQAPGKERELVAAISGSGGSTYYADSVKGRFTISRDYAKNTVYLQMNSLKPEDTAVYYCAARWQWLNGYYYWGQGTHVTVSS
4. QVQLVESGGGLVQAGGSLRLSCAASGSTFHRNAMGWYRQAPGKERELVAAITSGGSTNYADSVKGRFKISRDNAKNTVYLQMNSLKPEDTAVYYCAADEVWGRDLGEYWGQGTQVTVSS

Result string:
low polyreactivity
high polyreactivity
high polyreactivity
low polyreactivity

---

Test: yeast display, Sf9 membrane polyspecificity reagent, FACS + sequencing; frameworks hold sequencing errors
ENDPOINT: polyreactivity (PSR sort gate)

Please review the entries below; each comes with its answer.
| CONSTRUCT_SEQUENCE | OBSERVED_RESULT |
| --- | --- |
| QVQLVESGGGLVQAGGSLRLSCAASGSIFDYYAMGWYRQAPGKERELVAAISRSGTTNYADSVKGRFTISRDNAKNTVYFQMNSLKPEDTAVYYCNARTRGYRYTSALYYWGQGTQVTVSS | high polyreactivity |
| QVQLVESGGGLVQAGGSLRLSCAASGRTFYQYTMGWYRQAPGKERELVATISDSTNYADSVKGRFTISRDNAKNTVYLQMNSLKPEDTAVYYCNARVRGLGKYESWGQGTQVTVSS | low polyreactivity |
| QVQLVESGGGLVQAGGSLRLSCAASGFTFRRYAMGWYRQAPGKERELVAVITSTDSTYYADSVKGRFTISRDNAKNTVYFQMYSLKPEDTAVYYCARVYLGPRYAVFIYGYWGQGTQVTVSS | high polyreactivity |
| QVQLVESGGGLVQAGGSLRLSCAASGRTFYYYYTMGWYRQPPGKETELVAAISRSGSTNYADSVKGRFTISRDNAKNTVYLQMNSLKPEDTAVYYCARSYRSDGSRFGYWGQGTQVTVSS | low polyreactivity |

We next turn to a different sequence, shown below.
Query string: Quick one: give measured polyreactivity (PSR sort gate) for `QVQLVESGGGLVQAGGSLRLSCAASGRTFVYNAMGWYRQARGKEREFVAAISSGGGTNYADSVKGRFTISRDNAKNTVYLQMNSLQPEDTAVYYCAAGSVSIFRGYRDYYNPKEYDYCGQGTQVTVSS`
Result string: low polyreactivity

---

Experiment: yeast display, Sf9 membrane polyspecificity reagent, FACS + sequencing; frameworks hold sequencing errors
ENDPOINT: polyreactivity (PSR sort gate)

Please review the entries below; each comes with its answer.
| CONSTRUCT_SEQUENCE | polyreactivity (PSR sort gate) |
| --- | --- |
| QVQLVESGGGLVQAGGSLRLSCAASGRIFKNYAMGWYRQAPGKERELVAAISWSGGRTYYADSVKGRFTISRDNAKNTVYLQMNSLKPEDTAVYYCAASIRTGYRYGYWGQGTQVTVSS | high polyreactivity |
| QVQLVESGGGLVQAGGSLRLSCAASGFTFSENTMGWYRQAPGKERELVADIDSGGSTYYADSVKGRFTISRDNAKNTVYLQMKRLKPEDTAVYYCAKDYHVVGGPTFLFEYDYWGQGSQVTVSS | low polyreactivity |
| QVQLVESGGGLVQAGGSLRLICAASGGTFNAYAMGWYRQAPGKERELVATISYSGGSTYYADSEKGRFTISRDNAKNTVYLQMNSLKPEDTAVYYCATDVYDSTPFRFDYWGQGTQVTVSS | low polyreactivity |
| QVQLVESGGGLVQAGGSLRLSCAASGRIFSSNAMGWYRQAPGTERELVAAITSGGSTYADSVKGRFTISRDNAKNTVYLQMNSLKPEDTAVYYCATRQGWYGWYGYWGQGTQVTVSS | high polyreactivity |
| QVQLVESGGGLVQAGGSLRLSCAASGGIFSYAMGWYRQAPGKERELVAAISRSAGITYYADSVKGRFTISRDNAKNTVYLQMNSLKPEDTAVYYCAASYYSYLYYSWGQGTQVTVSS | high polyreactivity |

For each of the sequences below, state polyreactivity (PSR sort gate).
1. QVQLVESGGGLVQAGGSLRLSCAASGSTFQANDMGWYRQAPGKERELVAAISTGGSSTYYADSVKGRFTISRDNAKNTVYLQMNCLKPEDTAVYYCAVDGLGGREGYWGQGTQVTVSS
2. QVQLVESGGGLVQAGGSLRLSCAASGRTFSYYAMGWYRKAPGKERELVAAFSGRGASTYYADSVKGRFTISRDNAKNTVYVQMNSLKPEDTAVYYCNAVPYYQYEYWGQGTQVTVSS
3. QVQLVESGGGLVQAGGSLRLSCAASGITFGGYAMGWYRKAPGKERELVAAITSSGGITYYADSVKGRFTISRDNAKKTVYLLLNSLKPEDTAVYYCAKVPLEIVTIRDDEDYWGQGTQVTVSS
4. QVQLVESGGGLVQAGGSLRLSCAASGIIFGYYAMGWYRQAPGKERELVAAINQDGSSTYYADSVKGRFTISRDNAKNTVYLQMNSLKPEDTAVYYCNARGVPRQDARMGYWGQGTQVTVSS
5. QVQLVESGGGLVQAGGSLRLSCAASGSIFVLNAMGWYTQAPGKERELVAAINKSGGRTYYADSVKGRFTISRDNAKNTVYLQMNSLKPEDTAVDYCAVDISVTGSSNRYGYWGQGTQVTVSS
6. QVQLVESGGGLVQAGGSLRLRCAASGSTFGYYSMGWYRQAPGKEMELVAAISKSGGRTYYADSVKGRFTISRDTAKNTVYVQMNSLKPEDTAVYYCNKANGGDEVDYWGQGTQVTVSS
7. QVQLVESGGGLVQAGGSLRLSCAASGITFDHYAMGWYRQAPGKEREFVAAIDDIGGDTYYADSVKGRFTISRDNAKNTVYLQMNSLKPEDTAVYYCAADYGYYSRFYYWGQGTQVTVSS
8. QVQLVESGGGLVQAGGSLRLSSAASGRIFYKYAMGWNRQAPGKERELVAGITGSGGSTYYADSVKGRFTISRDNAKNTVYLQMNSLKPEDTAVYYCAKRVSYDYWGQGTQVTVSS

Result string:
1. high polyreactivity
2. low polyreactivity
3. low polyreactivity
4. low polyreactivity
5. high polyreactivity
6. high polyreactivity
7. low polyreactivity
8. low polyreactivity

For each of the sequences below, state polyreactivity (PSR sort gate).
1. QVQLVESGVGLVQAGGSLRLSCAASGYIFRLYAMGGYRQAPGKERELVATITASGGTYYADSVKGRFTISRDNAKNTVYLQMNSLKPEDTAVYYCAAAKLRRLSRVRYGYWGQGTQVTVSS
2. QVQLVESGGGLVQAGGSLRLSCAASGRIFYPNAMGWYRQAPGKERELVAAISKRGGRTYYADSVKGRFTISRDNAKNTVYLQMNSLNPEDTAVYYCATRWASYPRTGRYDYWGQGTQVTVSS

Result string:
["high polyreactivity", "high polyreactivity"]

For each of the sequences below, state polyreactivity (PSR sort gate).
1. HVQLVESGGGFVQAGGSLRLSCAASGITFVKYTMGWYRQAPGKERELVAASSRSDGRTYYADSVKGRFTISRDNAKNSVYLQMNSLKPEDTAVYYCNAVYGVIGKGYNYWGQGTQVTVSS
2. QDQLVESGGGLVQAGGSLRLSCAASGSICSEYAMGWYRQAPGKERELVAAISRSGGTTYYADSVKGRFTISRDNAKNTVFLQMNSLKPEDTAVYYCAARYFRGSYPMGYWGQGTQVTVSS
3. QVQLVESGGGLVQAGGSLRLSCAASGFTFRLVNAMGWYRQAPGKERELVAGINSGDITYYADSVKGRFTISRDNAKNTVYLQMNSLKPEDTAVYYCAARVAWGYDYWGQGTQVTVSS
4. QVQLVESGGVLVQAGGSLRLSCAASGRIFSIYGMGWYRQAPVKEREFVASITYSGGSTYNADSVKGRFTISRDTAKNTVYLQMKSLKPEDTAVYYCAKYVFSAYDYWGQGTQVTVSS

Result string:
1. high polyreactivity
2. high polyreactivity
3. low polyreactivity
4. low polyreactivity

For each of the sequences below, state polyreactivity (PSR sort gate).
1. QVQLVESGGCLVQAGGSIRLSCAAYGSNFDNAMGWSRPATGKERELGAAITSGGITNYADSVKGRFTISRDNAKNTVYLQMNSLKPEDTAVYYCNTLSPTQTKFDYWGQGTQVTVTS
2. QVQLVESGGGLVQAGGSLRLSCAASGFTYSKNAMGWDRQAPAKERELVAVITRRGGSTYYADSVKGRFTISRDNAKNTVYLQMNSLKPEDTAVYYCAAASFTRRDLDYWGQGTQVTVSS

Result string:
low polyreactivity
high polyreactivity

Source listed as the nanobody polyreactivity screen of Harvey et al. (2022).
